assay.readout: ready biodegradability

Below are worked cases with known answers.
| smiles.structure | assay.readout | value |
| --- | --- | --- |
| CC(C)CCCCCCOC(=O)c1ccccc1C(=O)OCCCCCCC(C)C | ready biodegradability | readily biodegradable |
| CC(=O)C(C)C | ready biodegradability | readily biodegradable |
| CC(=O)Nc1ccccc1 | ready biodegradability | readily biodegradable |
| CCCCCNCCCCC | ready biodegradability | readily biodegradable |
| C=C(C(=O)O)c1ccccc1 | ready biodegradability | readily biodegradable |
| Cc1ccc(C)cc1 | ready biodegradability | readily biodegradable |
| Cc1ccc(C(C)C)cc1 | ready biodegradability | readily biodegradable |
| O=NN(CCO)CCO | ready biodegradability | readily biodegradable |
| CCCCCCCCCCN | ready biodegradability | readily biodegradable |

Here's the next entry for you.
Qu. Field request: ready biodegradability | item: Cc1ccccc1
Ans. readily biodegradable

====

Give measured log10 vapour pressure (mmHg) for each item. Keep answers brief.
Form rule: numeric answer, no unit written next to it.

Qu. Any idea what log10 vapour pressure (mmHg) was measured for C=Cc1ccc(C)cc1 ?
Ans. 0.258

Qu. Could you share which log10 vapour pressure (mmHg) value was measured for CC(C)CC(O)CC(C)C ?
Ans. -0.519

Qu. # input compound: CCCC(Cl)Cl ; wanted: its log10 vapour pressure (mmHg)
Ans. 1.36

Qu. Record request: log10 vapour pressure (mmHg) value, item CCC(C)CC(C)C (centres undefined)
Ans. 1.48

Qu. Which log10 vapour pressure (mmHg) value is on record for Cc1ccc(NC(O)=NC(C)(C)c2ccccc2)cc1 ?
Ans. -8.47

Qu. State the recorded log10 vapour pressure (mmHg) for this entry: CC(C)Nc1nc(Cl)nc(NC2CC2)n1
Ans. -6.52

Qu. Which log10 vapour pressure (mmHg) value belongs to C1CCCCCC1 ?
Ans. 1.33

Qu. Name the recorded log10 vapour pressure (mmHg) for Clc1cccc2c1Oc1ccccc1O2 .
Ans. -4.05

Qu. What measured log10 vapour pressure (mmHg) goes with O=C=NC1CCCCC1 ?
Ans. 0.0086

Qu. Which log10 vapour pressure (mmHg) value is on record for FC(F)(F)c1ccc(Cl)cc1Cl ?
Ans. 0.0449

Qu. Can you share its log10 vapour pressure (mmHg)? I mean this compound: CCC(=O)CC
Ans. 1.58

Qu. What measured log10 vapour pressure (mmHg) goes with CCCN(CC1CC1)c1c([N+](=O)[O-])cc(C(F)(F)F)cc1[N+](=O)[O-] ?
Ans. -4.2

Qu. Quick one: log10 vapour pressure (mmHg) for CCCCCCCCCCC(C)=O ?
Ans. -1.69

Qu. If you can, please state the reported log10 vapour pressure (mmHg) value of CCCCOCCOCCO .
Ans. -1.66

Qu. Please give the measured log10 vapour pressure (mmHg) for this compound: c1ccc2c(c1)ccc1c3ccccc3ccc21
Ans. -8.21

Qu. Consider the compound shown here: Cc1ccc(N(SC(F)(Cl)Cl)S(=O)(=O)N(C)C)cc1 What is its recorded log10 vapour pressure (mmHg)?
Ans. -5.82

Qu. Returns the measured log10 vapour pressure (mmHg) for the input compound. Input: CCCCC(O)C(=O)O (centres undefined)
Ans. -5.5

Qu. What does the record list as log10 vapour pressure (mmHg) for C#CCOS(=O)OC1CCCCC1Oc1ccc(C(C)(C)C)cc1 (centres undefined) ?
Ans. -6.52

Qu. Recorded log10 vapour pressure (mmHg) for CCCCS , please?
Ans. 1.66

Qu. So what does the record say about log10 vapour pressure (mmHg) for CCc1ccncc1 ?
Ans. 0.355

Qu. Looking for the measured log10 vapour pressure (mmHg) of O=C1CCCN1 , can you help?
Ans. -2.02

Qu. Value lookup for log10 vapour pressure (mmHg); key = Cc1cc(C)nc(Nc2ccccc2)n1
Ans. -4.78

Qu. // returns reported log10 vapour pressure (mmHg) for input CCC(C)(C)CC(C)C
Ans. 1.13

Qu. Any idea what log10 vapour pressure (mmHg) was measured for CCCc1ccc(C)cc1 ?
Ans. 0.043

Qu. Any idea what log10 vapour pressure (mmHg) was measured for CCC(N)=O ?
Ans. -1.42

Qu. Please report the recorded log10 vapour pressure (mmHg) for CCCCCF .
Ans. 2.27

Qu. # query: log10 vapour pressure (mmHg) of entry CCOC(=O)CCC(=O)OCC
Ans. -1.36

Qu. log10 vapour pressure (mmHg) lookup needed for CCC(C)C(C)C(C)C (centres undefined) , thanks.
Ans. 0.955

Qu. Which log10 vapour pressure (mmHg) is listed for COC(=O)CCC(=O)OC ?
Ans. -0.387

Qu. Which log10 vapour pressure (mmHg) value belongs to CCCCCCCCCC(=O)O ?
Ans. -3.44

Qu. If you can, please state the reported log10 vapour pressure (mmHg) value of CC=CC(=O)O .
Ans. -0.542

Qu. Given the entry CCOC(=O)C(O)(c1ccc(Cl)cc1)c1ccc(Cl)cc1 , report its measured log10 vapour pressure (mmHg).
Ans. -5.66

Qu. Return reported log10 vapour pressure (mmHg); argument: CC[Si](F)(CC)CC
Ans. 1.57

Qu. Which log10 vapour pressure (mmHg) value is on record for Cc1ccccc1 ?
Ans. 1.45

Qu. Fill in: log10 vapour pressure (mmHg) of Clc1ccc(Cl)c(Oc2ccccc2)c1 is ___
Ans. -3

Qu. Entry CNC(=O)Oc1cc(C)cc(C(C)C)c1 : reported log10 vapour pressure (mmHg) = ?
Ans. -4.52

Qu. Quick check: log10 vapour pressure (mmHg) of CSC(C)C ?
Ans. 1.9

Qu. I would be grateful if you could share the reported log10 vapour pressure (mmHg) for OCCNCCO .
Ans. -3.55

Qu. Which log10 vapour pressure (mmHg) reading was recorded for the compound Cc1cc(C)c(O)c(C)c1 ?
Ans. -1.76

Qu. Please look up its log10 vapour pressure (mmHg): Clc1ccc(-c2cc(Cl)c(Cl)cc2Cl)c(Cl)c1
Ans. -4.66

Qu. # get_value(readout='log10 vapour pressure (mmHg)', item= C=CCCCCC )
Ans. 1.77

Qu. For the compound O=C(CCl)c1cccc([N+](=O)[O-])c1 , what log10 vapour pressure (mmHg) is on record?
Ans. -5.06

Qu. Field request: log10 vapour pressure (mmHg) | item: CS(C)=O
Ans. -0.215

Qu. Item CCCC(C)I (centres undefined) has what recorded log10 vapour pressure (mmHg)?
Ans. 1.04

Qu. Value lookup for log10 vapour pressure (mmHg); key = CC(C)c1cccc(O)c1
Ans. -1.16

Qu. // lookup log10 vapour pressure (mmHg) for FC(F)(F)C(Cl)Cl
Ans. 2.86

Qu. Fill blank: measured log10 vapour pressure (mmHg) of the compound CC(=O)C(C)(C)O is ____.
Ans. 0.792

Qu. // log10 vapour pressure (mmHg) lookup, key: CCCCC(CC)COC(=O)c1ccccc1C(=O)OCC(CC)CCCC (centres undefined)
Ans. -6.85

Qu. Find the recorded log10 vapour pressure (mmHg) belonging to Clc1ccc(Oc2ccccc2Cl)cc1 and report it.
Ans. -3.15

Qu. Returns the measured log10 vapour pressure (mmHg) for the input compound. Input: FC(F)(F)C(F)(F)F
Ans. 4.4

Qu. # query: log10 vapour pressure (mmHg) of entry CCCCCCCCCCCC(C)=O
Ans. -1.98

Qu. Recorded log10 vapour pressure (mmHg) of CC(O)C#N (centres undefined) , please.
Ans. -0.925

Qu. Requested read-out: log10 vapour pressure (mmHg). Entry: CCN
Ans. 3.02

Qu. Using the record for COC(=O)CCCC(=O)OC , report its log10 vapour pressure (mmHg).
Ans. -0.745

Qu. Consider the compound CCCC=C(C)C and give its measured log10 vapour pressure (mmHg).
Ans. 1.73

Qu. Fill blank: measured log10 vapour pressure (mmHg) of the compound CC=Cc1ccc(O)c(OC)c1 is ____.
Ans. -1.92

Qu. Which log10 vapour pressure (mmHg) is reported for this compound? OCCCCCCO
Ans. -3.3

Qu. Fill in the blank: the reported log10 vapour pressure (mmHg) of O=C(C(F)(F)F)C(F)(F)F is ____.
Ans. 3.35

Qu. Reported log10 vapour pressure (mmHg) for O=C(NC(=O)c1c(F)cccc1F)Nc1ccc(Cl)c(Oc2ncc(C(F)(F)F)cc2Cl)c1 : what is it?
Ans. -12

Qu. Value lookup for log10 vapour pressure (mmHg); key = CC(C)COCC(C)C
Ans. 1.19

Qu. Returns the measured log10 vapour pressure (mmHg) for the input compound. Input: CCC(C)CO (centres undefined)
Ans. 0.494

Qu. I am curious: what log10 vapour pressure (mmHg) value has been reported for Cc1ccc2c(C)cccc2c1 ?
Ans. -1.84

Qu. Would you mind telling me what log10 vapour pressure (mmHg) value was observed for CCCN(CCC)CCC ?
Ans. 0.179

Qu. # lookup: log10 vapour pressure (mmHg) of O=C1CCCCN1
Ans. -2.36

Qu. Can you look up the measured log10 vapour pressure (mmHg) of CCOC(F)(F)C(F)F for me?
Ans. 2.34

Qu. Bench note: what log10 vapour pressure (mmHg) did FC(F)C(F)(F)F show?
Ans. 4.02

Qu. What value of log10 vapour pressure (mmHg) has been recorded for this entry: CCOC(=O)C(Cl)Cc1cc(-n2nc(C)n(C(F)F)c2=O)c(F)cc1Cl (centres undefined)
Ans. -6.92

Qu. What does the data say about its log10 vapour pressure (mmHg)? Entry: Cc1ccccc1CO[C@H]1C[C@]2(C(C)C)CC[C@@]1(C)O2 (single isomer, unassigned)
Ans. -4.12

Qu. I'd like to know its log10 vapour pressure (mmHg). The compound in question is CC1CCC(=O)CC1
Ans. 0.176
